Target: Peroxisome proliferator-activated receptor gamma (Homo sapiens)
Experiment: Transactivation of human PPARgamma ligand binding domain transfected in mouse embryo fibroblasts at 100 uM after 18 hrs analyzed by photinus and renilla luciferase activity by luminometry relative to 1 uM rosiglitazone
The source made the active and inactive calls. The rule behind the calls is not given here.

MOLECULAR_STRING	ASSAY_TARGET	Activity
O=C(O)CCc1ccc(OCc2ccc(-c3ccccc3)cc2)cc1	Peroxisome proliferator-activated receptor gamma (Homo sapiens)	inactive
O=C(O)CCc1ccc(OCc2ccccc2)cc1	Peroxisome proliferator-activated receptor gamma (Homo sapiens)	7%
O=C(O)CCc1ccc(NCc2cccc(Br)c2)cc1	Peroxisome proliferator-activated receptor gamma (Homo sapiens)	27%
O=C(O)CCc1ccc(NCc2ccc(Oc3ccccc3)cc2)cc1	Peroxisome proliferator-activated receptor gamma (Homo sapiens)	34%
O=C(O)CCc1ccc(NCc2ccccc2)cc1	Peroxisome proliferator-activated receptor gamma (Homo sapiens)	7%
COc1ccccc1-c1cccc(COc2ccc(CCC(=O)O)cc2)c1	Peroxisome proliferator-activated receptor gamma (Homo sapiens)	37%
O=C(O)CCc1ccc(OCc2cccc(Oc3ccccc3)c2)cc1	Peroxisome proliferator-activated receptor gamma (Homo sapiens)	51%
O=C(O)CCc1ccc(NCc2cccc(Oc3ccccc3)c2)cc1	Peroxisome proliferator-activated receptor gamma (Homo sapiens)	54%
COc1ccccc1-c1cccc(CNc2ccc(CCC(=O)O)cc2)c1	Peroxisome proliferator-activated receptor gamma (Homo sapiens)	51%
Cc1ccccc1-c1cccc(COc2ccc(CCC(=O)O)cc2)c1	Peroxisome proliferator-activated receptor gamma (Homo sapiens)	37%
O=C(O)CCc1ccc(OCc2cccc(-c3ccccc3)c2)cc1	Peroxisome proliferator-activated receptor gamma (Homo sapiens)	25%
O=C(O)CCc1ccc(COc2ccccc2)cc1	Peroxisome proliferator-activated receptor gamma (Homo sapiens)	inactive
O=C(O)CCc1ccc(OCc2ccc(Oc3ccccc3)cc2)cc1	Peroxisome proliferator-activated receptor gamma (Homo sapiens)	23%
